Value source: ChEMBL document CHEMBL2311262

Experiment: Clearance in rat at 5 mg/kg, iv
Type: ADME, organism-based
Design: dose 5 mg/kg, route intravenous
Details: in vivo
Endpoint Label: clearance (mL/min/kg)
Response body: numeric value in mL/min/kg, unit text excluded.

Task: // query clearance value for entry CS(=O)(=O)CC[C@@H]1OCC[C@@]2(S(=O)(=O)c3ccc(C(F)(F)F)cc3)c3c(F)ccc(F)c3OC[C@@H]12
Result: 40

* * *

Experiment: Clearance in monkey at 2.5 mg/kg, iv
Type: ADME, organism-based, Macaca mulatta
Parameters: dose 2.5 mg/kg, route intravenous
Settings: rhesus monkey, in vivo
Endpoint Label: clearance (mL/min/kg)
Response body: numeric value in mL/min/kg, unit text excluded.

Task: // query clearance value for entry CS(=O)(=O)CC[C@@H]1OCC[C@@]2(S(=O)(=O)c3ccc(C(F)(F)F)cc3)c3c(F)ccc(F)c3OC[C@@H]12
Result: 6.5

* * *

Assay: Half life in dog at 10 mg/kg, po
Format: ADME, organism-based, Canis lupus familiaris
Set-up: dose 10 mg/kg, route oral
Settings: in vivo
Endpoint Label: half-life (h)
Response body: numeric value in h, unit text excluded.

Task: // query half-life value for entry CS(=O)(=O)CC[C@@H]1OCC[C@@]2(S(=O)(=O)c3ccc(C(F)(F)F)cc3)c3c(F)ccc(F)c3OC[C@@H]12
Result: 17

* * *

Biological target: Gamma-secretase
Experiment: Inhibition of gamma secretase-mediated amyloid beta40 production in HEK293 cells transfected with human APPSOW and APPLON after 5 hrs by sandwich immunoassay
Assay type: cell-based
# note: exactly 10 nM is not below, so it is class 0; use class 1 for IC50 strictly under it

{"Structure": "CCS(=O)(=O)CC[C@@H]1OCC[C@@]2(S(=O)(=O)c3ccc(Cl)cc3)c3c(F)ccc(F)c3OC[C@@H]12", "Class Name": "class 1"}
{"Structure": "O=S(=O)(CC[C@@H]1OCC[C@@]2(S(=O)(=O)c3ccc(Cl)cc3)c3c(F)ccc(F)c3OC[C@@H]12)CC(F)(F)F", "Class Name": "class 0"}
{"Structure": "CS(=O)(=O)CC[C@@H]1OCC[C@@]2(S(=O)(=O)c3ccc(C(F)(F)F)cc3)c3c(F)ccc(F)c3OC[C@@H]12", "Class Name": "class 0"}

# ---- query compound ----
Task: Given O=S(=O)(CC[C@@H]1OCC[C@@]2(S(=O)(=O)c3ccc(Cl)cc3)c3c(F)ccc(F)c3OC[C@@H]12)C(F)(F)F , is recorded IC50 strictly lower than 10 nM?
Result: class 0

* * *

Assay: Volume of distribution at steady state in dog at 2.5 mg/kg, iv
Type: ADME, organism-based, Canis lupus familiaris
Design: dose 2.5 mg/kg, route intravenous
Conditions: in vivo, read-out: Vdss
Endpoint Label: Vd (L/kg)
Response body: numeric value in L/kg, unit text excluded.

Task: // query Vd value for entry CS(=O)(=O)CC[C@@H]1OCC[C@@]2(S(=O)(=O)c3ccc(C(F)(F)F)cc3)c3c(F)ccc(F)c3OC[C@@H]12
Result: 6.1

* * *

Target: hERG (KCNH2) (Homo sapiens)
Sequence (Q12809 whole entry): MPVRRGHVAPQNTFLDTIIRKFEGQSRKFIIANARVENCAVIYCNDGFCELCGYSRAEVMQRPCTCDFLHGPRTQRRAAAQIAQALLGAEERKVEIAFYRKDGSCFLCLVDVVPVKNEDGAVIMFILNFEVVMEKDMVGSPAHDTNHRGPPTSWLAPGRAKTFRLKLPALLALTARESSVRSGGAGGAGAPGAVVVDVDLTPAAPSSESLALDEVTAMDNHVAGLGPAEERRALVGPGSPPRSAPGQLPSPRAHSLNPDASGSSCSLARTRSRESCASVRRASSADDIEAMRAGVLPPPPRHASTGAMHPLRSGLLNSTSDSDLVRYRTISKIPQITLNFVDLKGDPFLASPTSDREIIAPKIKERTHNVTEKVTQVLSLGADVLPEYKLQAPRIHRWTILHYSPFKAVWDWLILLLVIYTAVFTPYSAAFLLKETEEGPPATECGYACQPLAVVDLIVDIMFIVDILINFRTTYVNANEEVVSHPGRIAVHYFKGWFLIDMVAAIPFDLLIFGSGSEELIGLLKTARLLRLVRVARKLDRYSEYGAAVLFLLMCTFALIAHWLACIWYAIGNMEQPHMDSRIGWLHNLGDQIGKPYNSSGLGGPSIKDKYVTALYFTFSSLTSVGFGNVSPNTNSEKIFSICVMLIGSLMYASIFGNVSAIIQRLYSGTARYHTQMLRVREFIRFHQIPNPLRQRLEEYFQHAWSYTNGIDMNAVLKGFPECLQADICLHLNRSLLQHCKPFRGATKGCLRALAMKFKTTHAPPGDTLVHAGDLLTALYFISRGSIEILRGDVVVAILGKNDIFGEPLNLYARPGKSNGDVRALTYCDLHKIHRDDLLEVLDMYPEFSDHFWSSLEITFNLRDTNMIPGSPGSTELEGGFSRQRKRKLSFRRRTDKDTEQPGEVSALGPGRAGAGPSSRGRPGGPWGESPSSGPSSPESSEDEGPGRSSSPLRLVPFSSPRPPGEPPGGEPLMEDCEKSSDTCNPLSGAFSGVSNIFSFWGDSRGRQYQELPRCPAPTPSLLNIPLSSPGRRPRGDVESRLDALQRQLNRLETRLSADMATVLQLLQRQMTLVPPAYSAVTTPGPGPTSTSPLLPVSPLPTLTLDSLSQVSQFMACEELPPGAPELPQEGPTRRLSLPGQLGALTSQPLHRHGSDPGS
Experiment: Inhibition of human ERG at 10 uM by voltage clamp assay
Endpoint Label: inhibition at 10 µM (%)
Response body: numeric value in %, unit text excluded.

Task: // query inhibition at 10 µM value for entry CS(=O)(=O)CC[C@@H]1OCC[C@@]2(S(=O)(=O)c3ccc(C(F)(F)F)cc3)c3c(F)ccc(F)c3OC[C@@H]12
Result: 31

* * *

Assay: AUC (0 to infinity) in rat at 10 mg/kg, po
Assay type: ADME, organism-based
Parameters: time infinity, dose 10 mg/kg, route oral
Conditions: plasma
Endpoint Label: AUC(0-inf) (µM·h)
Response body: numeric value in µM·h, unit text excluded.

Task: // query AUC(0-inf) value for entry CS(=O)(=O)CC[C@@H]1OCC[C@@]2(S(=O)(=O)c3ccc(C(F)(F)F)cc3)c3c(F)ccc(F)c3OC[C@@H]12
Result: 3.5

* * *

Assay: Volume of distribution at steady state in monkey at 2.5 mg/kg, iv
Type: ADME, organism-based, Macaca mulatta
Design: dose 2.5 mg/kg, route intravenous
Conditions: rhesus monkey, in vivo, read-out: Vdss
Endpoint Label: Vd (L/kg)
Response body: numeric value in L/kg, unit text excluded.

Task: // query Vd value for entry CS(=O)(=O)CC[C@@H]1OCC[C@@]2(S(=O)(=O)c3ccc(C(F)(F)F)cc3)c3c(F)ccc(F)c3OC[C@@H]12
Result: 6.6

* * *

Molecular target: Gamma-secretase
Assay: Inhibition of gamma secretase-mediated notch cleavage in HEK293 cells expressing human notch protein with truncated extracellular EGF repeat domain by sandwich immunoassay
Assay type: cell-based
Endpoint Label: IC50
Number first, unit second: that is the form wanted.

Task: // query IC50 value for entry CS(=O)(=O)CC[C@@H]1OCC[C@@]2(S(=O)(=O)c3ccc(C(F)(F)F)cc3)c3c(F)ccc(F)c3OC[C@@H]12
Result: 31 nM

* * *

Test: Volume of distribution at steady state in rat at 5 mg/kg, iv
Assay type: ADME, organism-based
Parameters: dose 5 mg/kg, route intravenous
Details: in vivo, read-out: Vdss
Endpoint Label: Vd (L/kg)
Response body: numeric value in L/kg, unit text excluded.

Task: // query Vd value for entry CS(=O)(=O)CC[C@@H]1OCC[C@@]2(S(=O)(=O)c3ccc(C(F)(F)F)cc3)c3c(F)ccc(F)c3OC[C@@H]12
Result: 8.9

* * *

Assay: AUC (0 to infinity) in dog at 10 mg/kg, po
Assay type: ADME, organism-based, Canis lupus familiaris
Parameters: time infinity, dose 10 mg/kg, route oral
Conditions: plasma
Endpoint Label: AUC(0-inf) (µM·h)
Response body: numeric value in µM·h, unit text excluded.

Task: // query AUC(0-inf) value for entry CS(=O)(=O)CC[C@@H]1OCC[C@@]2(S(=O)(=O)c3ccc(C(F)(F)F)cc3)c3c(F)ccc(F)c3OC[C@@H]12
Result: 46

* * *

Biological target: Gamma-secretase
Experiment: Inhibition of gamma secretase-mediated amyloid beta40 production in HEK293 cell membranes transfected with human APPSOW and APPLON mutant after 5 hrs by sandwich immunoassay
Type: cell-based
Listed here are molecules together with their documented IC50.
Response body: numeric value in nM, unit text excluded.

Task: // query IC50 value for entry CC(C)S(=O)(=O)CC[C@@H]1OCC[C@@]2(S(=O)(=O)c3ccc(Cl)cc3)c3c(F)ccc(F)c3OC[C@@H]12
Result: 5.5

Task: // query IC50 value for entry O=S(=O)(CC[C@@H]1OCC[C@@]2(S(=O)(=O)c3ccc(Cl)cc3)c3c(F)ccc(F)c3OC[C@@H]12)CC(F)(F)F
Result: 7.3

Task: // query IC50 value for entry O=S(=O)(CC[C@@H]1OCC[C@@]2(S(=O)(=O)c3ccc(Cl)cc3)c3c(F)ccc(F)c3OC[C@@H]12)c1cnn[nH]1
Result: 4.3

Task: // query IC50 value for entry O=S(=O)(CC[C@@H]1OCC[C@@]2(S(=O)(=O)c3ccc(Cl)cc3)c3c(F)ccc(F)c3OC[C@@H]12)c1ncn[nH]1
Result: 2.1

Task: // query IC50 value for entry CCCS(=O)(=O)CC[C@@H]1OCC[C@@]2(S(=O)(=O)c3ccc(Cl)cc3)c3c(F)ccc(F)c3OC[C@@H]12
Result: 6.8

* * *

Assay: Ratio of drug level in brain to plasma in rat at 6 hrs
Type: ADME
Conditions: read-out: BPR
Endpoint Label: Kp at 6 h

{"Structure": "O=C(O)CS(=O)(=O)CC[C@@H]1OCC[C@@]2(S(=O)(=O)c3ccc(Cl)cc3)c3c(F)ccc(F)c3OC[C@@H]12", "Kp at 6 h": 0.1}

Proceeding to the next compound to report its Kp at 6 h.
Task: // query Kp at 6 h value for entry O=S(=O)(CCO)CC[C@@H]1OCC[C@@]2(S(=O)(=O)c3ccc(Cl)cc3)c3c(F)ccc(F)c3OC[C@@H]12
Result: 0.1

* * *

Test: Cmax in rat at 10 mg/kg, po
Assay type: ADME, organism-based
Parameters: dose 10 mg/kg, route oral
Conditions: in vivo
Endpoint Label: Cmax (nM)
Response body: numeric value in nM, unit text excluded.

Task: // query Cmax value for entry CS(=O)(=O)CC[C@@H]1OCC[C@@]2(S(=O)(=O)c3ccc(C(F)(F)F)cc3)c3c(F)ccc(F)c3OC[C@@H]12
Result: 680

* * *

Experiment: Oral bioavailability in rat at 10 mg/kg
Type: ADME, organism-based
Details: in vivo
Endpoint Label: bioavailability (%)
Response body: numeric value in %, unit text excluded.

Task: // query bioavailability value for entry CS(=O)(=O)CC[C@@H]1OCC[C@@]2(S(=O)(=O)c3ccc(C(F)(F)F)cc3)c3c(F)ccc(F)c3OC[C@@H]12
Result: 44

* * *

Test: Clearance in dog at 2.5 mg/kg, iv
Format: ADME, organism-based, Canis lupus familiaris
Parameters: dose 2.5 mg/kg, route intravenous
Conditions: in vivo
Endpoint Label: clearance (mL/min/kg)
Response body: numeric value in mL/min/kg, unit text excluded.

Task: // query clearance value for entry CS(=O)(=O)CC[C@@H]1OCC[C@@]2(S(=O)(=O)c3ccc(C(F)(F)F)cc3)c3c(F)ccc(F)c3OC[C@@H]12
Result: 4.6
